Sequence of the target: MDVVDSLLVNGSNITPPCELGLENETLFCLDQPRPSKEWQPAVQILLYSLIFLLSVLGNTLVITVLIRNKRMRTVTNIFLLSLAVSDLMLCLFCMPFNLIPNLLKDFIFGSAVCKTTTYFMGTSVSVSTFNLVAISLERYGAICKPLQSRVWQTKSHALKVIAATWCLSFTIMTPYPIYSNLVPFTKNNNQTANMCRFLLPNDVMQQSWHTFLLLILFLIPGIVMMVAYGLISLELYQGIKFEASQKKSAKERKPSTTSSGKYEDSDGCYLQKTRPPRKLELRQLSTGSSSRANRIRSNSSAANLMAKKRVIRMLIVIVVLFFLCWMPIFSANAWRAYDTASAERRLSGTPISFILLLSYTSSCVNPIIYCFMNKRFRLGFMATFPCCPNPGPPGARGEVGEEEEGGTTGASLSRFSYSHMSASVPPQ
pKi: −log10 of the molar value.
Label 1.0 when pKi >= 8; otherwise 0.0.

Assess whether reported pKi for Cc1ccc(-n2nc(CC(C(=O)O)c3cccc(C)c3)cc2-c2ccc(N3CCCCC3)cc2)cc1 (stereo not shown) [Example 349] sits at 8 or higher.
0.0

Assess whether reported pKi for Cc1cccc(C(Cc2cc(-c3ccc(OCc4ccccc4)cc3)n(-c3ccc(OC(F)(F)F)cc3)n2)C(=O)O)c1 (stereo not shown) [Example 58] sits at 8 or higher.
0.0

Assess whether reported pKi for O=C(O)/C(=C\c1cc(-c2ccc3c(c2)OCO3)n(-c2cc(Cl)ccc2Cl)n1)c1cccc(Cl)c1 [Example 122] sits at 8 or higher.
1.0

Assess whether reported pKi for COc1ccc(-n2nc(CC(C(N)=O)c3cccc(C)c3)cc2-c2ccc(C)cc2)cc1 (stereo not shown) [Example 65] sits at 8 or higher.
0.0

Assess whether reported pKi for Cc1ccc(-n2nc(CC(C(=O)O)c3cccc(C)c3)cc2-c2ccc(N3CCCC3)cc2)cc1 (stereo not shown) [Example 352] sits at 8 or higher.
0.0
